Each entry below carries its recorded IC50.
Test system: Trypanosoma brucei rhodesiense
MEASUREMENT DESCRIPTION: Trypanocidal activity against Trypanosoma brucei rhodesiense STIB 900 bloodstream forms after 72 hrs by resazurin assay
Format: functional, organism-based
EXPERIMENTAL SETUP: STIB 900, 72 h
RESULT TYPE: IC50 (µg/mL)

>>> print(df.to_string())
                              line_notation  recorded_measurement
0  O=C1[C@H]2N=NN(Cc3nc(-c4ccccc4)no3)[C@H]2C(=O)N1c1ccccc1                     7
1  O=C1[C@H]2N=NN(Cc3nc(-c4ccc([N+](=O)[O-])cc4)no3)[C@H]2C(=O)N1c1ccccc1                     8
2  O=C1[C@H]2N=NN(Cc3nc(-c4ccc(I)cc4)no3)[C@H]2C(=O)N1c1ccccc1                  18.8

* * *

Consider the following compounds and their measured IC50 readings.
System: Trypanosoma brucei rhodesiense
MEASUREMENT DESCRIPTION: Trypanocidal activity against Trypanosoma brucei rhodesiense STIB 900 bloodstream forms after 72 hrs by resazurin assay
Type: functional, organism-based
EXPERIMENTAL SETUP: STIB 900, 72 h
RESULT TYPE: IC50 (µg/mL)

In [3]: df
Out[3]:
                              line_notation  recorded_measurement
0  O=C1[C@H]2N=NN(Cc3nc(-c4ccc(Br)cc4)no3)[C@H]2C(=O)N1c1ccccc1                  18.2
1  O=C1[C@H]2N=NN(Cc3nc(-c4ccc(Cl)cc4)no3)[C@H]2C(=O)N1c1ccccc1                  17.2
2  CN(C)c1ccc(-c2noc(CN3N=N[C@@H]4C(=O)N(c5ccccc5)C(=O)[C@@H]43)n2)cc1                  13.1
3  O=C1[C@H]2N=NN(Cc3nc(-c4ccc(C(F)(F)F)cc4)no3)[C@H]2C(=O)N1c1ccccc1                  13.9
4  COc1ccc(-c2noc(CN3N=N[C@@H]4C(=O)N(c5ccccc5)C(=O)[C@@H]43)n2)cc1                  16.9
5  O=C1[C@H]2N=NN(Cc3nc(-c4ccc(F)cc4)no3)[C@H]2C(=O)N1c1ccccc1                  12.3
6  CSc1ccc(-c2noc(CN3N=N[C@@H]4C(=O)N(c5ccccc5)C(=O)[C@@H]43)n2)cc1                  16.3
7  Cc1ccc(-c2noc(CN3N=N[C@@H]4C(=O)N(c5ccccc5)C(=O)[C@@H]43)n2)cc1                   8.4
